Items are presented alongside their recorded pIC50.
Target: TLR7 (Homo sapiens)
Sequence (Q9NYK1 27-1049): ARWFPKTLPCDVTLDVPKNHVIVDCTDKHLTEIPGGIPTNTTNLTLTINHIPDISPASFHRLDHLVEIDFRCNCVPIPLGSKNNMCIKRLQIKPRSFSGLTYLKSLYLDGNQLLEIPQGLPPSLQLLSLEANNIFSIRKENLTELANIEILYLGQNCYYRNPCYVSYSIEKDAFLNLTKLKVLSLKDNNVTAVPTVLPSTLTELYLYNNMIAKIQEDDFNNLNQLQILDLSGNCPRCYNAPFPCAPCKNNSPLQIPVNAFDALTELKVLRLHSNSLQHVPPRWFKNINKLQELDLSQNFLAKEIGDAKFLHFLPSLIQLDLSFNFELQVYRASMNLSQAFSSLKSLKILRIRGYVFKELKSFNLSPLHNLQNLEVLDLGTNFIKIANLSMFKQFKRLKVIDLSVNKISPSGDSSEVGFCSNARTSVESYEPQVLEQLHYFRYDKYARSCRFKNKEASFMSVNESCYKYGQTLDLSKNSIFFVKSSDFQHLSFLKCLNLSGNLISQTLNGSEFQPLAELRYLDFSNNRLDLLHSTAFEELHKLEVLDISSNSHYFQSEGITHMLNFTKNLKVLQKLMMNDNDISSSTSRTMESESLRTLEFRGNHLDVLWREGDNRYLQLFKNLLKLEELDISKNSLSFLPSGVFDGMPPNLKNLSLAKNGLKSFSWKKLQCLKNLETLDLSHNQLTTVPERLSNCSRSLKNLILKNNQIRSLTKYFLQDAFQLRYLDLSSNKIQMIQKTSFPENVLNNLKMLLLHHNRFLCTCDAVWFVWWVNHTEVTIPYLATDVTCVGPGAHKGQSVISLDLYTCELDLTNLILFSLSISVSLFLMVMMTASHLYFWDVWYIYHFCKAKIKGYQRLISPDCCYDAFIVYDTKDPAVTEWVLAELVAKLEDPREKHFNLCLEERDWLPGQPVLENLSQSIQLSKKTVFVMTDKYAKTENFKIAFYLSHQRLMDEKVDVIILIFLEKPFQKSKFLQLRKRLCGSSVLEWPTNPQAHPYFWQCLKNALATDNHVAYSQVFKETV
Experiment: HEK TLR7 Cell Assay
Details: TLR7/NFKb HEK cells, R848 agonist 10 uM final, Steady-Glo readout
pIC50: −log10 of the molar value. Counter-ions that a name gives are not always drawn.

Cc1ncc(N2C[C@@H](C)[C@@H](NC(=O)CC3CN(C)C3)C2)c2cccnc12; 5.00 to 6.00

Which pIC50 value is on record for C[C@@H]1CN(c2ccc(C(F)(F)F)c3ncccc23)C[C@@H]1NC(=O)CC1CCN(C)CC1 ?
> 6.00

Given Cc1ccc(N2C[C@@H](C)[C@@H](NC(=O)C(O)C3CC3)C2)c2cccnc12 (single isomer, unassigned) [Compound 45] , state its recorded pIC50.
< 5.00

Please report the recorded pIC50 for Cc1ncc(N2C[C@@H](C)[C@@H](N)C2)c2cccnc12 [Compound 51, hydrochloride] .
5.00 to 6.00

I have this compound here, CC1CN(c2ccc(C#N)c3nccnc23)CC1N (stereo not shown) [Compound 56, hydrochloride] , and I need its recorded pIC50.
> 6.00

Entry Cc1ccc(N2C[C@@H](C)[C@@H](NC(=O)CC3CCCN(C)C3)C2)c2cccnc12 (single isomer, unassigned) [Compound 36] has what pIC50?
> 6.00
